The measurements presented in this section are drawn from patent US9040563B2.

Below, each entry is listed with its recorded selectivity (ratio of GGTase-I to FTase IC50s).
molecular target: hFTase (Homo sapiens, UniProt P49354+P49356); assay: In vitro hFTase inhibition: incorporation of [3H]FPP into recombinant H-Ras-CVLS; format: biochemical; conditions: GGTase-I IC50 / hFTase IC50

See these solved cases before continuing.
Cn1cnc(S(=O)(=O)N(CCN(Cc2cncn2C)c2ccc(C#N)cn2)CC2CCN(c3ncccn3)CC2)c1 [19c]    >91
Cn1cnc(S(=O)(=O)N(Cc2ccccc2)[C@@H]2CCC[C@@H]2N(Cc2cncn2C)c2ccc(C#N)cc2)c1 [20b]    >10

Given the molecule Cn1cnc(S(=O)(=O)N(CCN(Cc2cncn2C)c2ncc(C#N)cn2)CC2CCN(c3ncccn3)CC2)c1 [19d] and test system hFTase (Homo sapiens, UniProt P49354+P49356), the measured selectivity (ratio of GGTase-I to FTase IC50s) is >16

Given the molecule C#CCN(CCN(Cc1cncn1C)c1ccc(C#N)cc1)S(=O)(=O)c1cn(C)cn1 and test system hFTase (Homo sapiens, UniProt P49354+P49356), the measured selectivity (ratio of GGTase-I to FTase IC50s) is >14
